Kindly supply the reported Half Life of Complex values for the records listed here.
target: T1, HLA-A2 (HLA-A0201) MHC class I complex (human); test: ITopia soluble class I plate-based stability assay, 37 C
T1 construct: the methods section names HLA-A0201; also called HLA-A201; MHCI
Where no end group is shown, it is not given here. [ ]: non-standard residue; d: D form. Gly(cPent) = N[C@H](C(=O)O)C1CCCC1
Please reply with the bare figure in h and do not write the unit itself.

[Q] Fill in reported Half Life of Complex for this entry: KVRRAIEQL [Native Survivin 130-138 peptide KVRRAIEQL]
[A] 1.9

[Q] Fill in reported Half Life of Complex for this entry: ISTFKNWPF [Native Survivin 19-27 peptide ISTFKNWPF]
[A] 0.24

[Q] Fill in reported Half Life of Complex for this entry: EXAGIGXLTV ([c5g] (aminocyclopentyl carboxylic acid) at position 2; [amv] at position 7 (abbreviation not defined in the filing), MART-1 decamer derivative with a double substitution) [E-[c5g]-AGIG-[amv]-LTV]
[A] 11.9

[Q] Fill in reported Half Life of Complex for this entry: I[Gly(cPent)]TFKNWPF (Survivin 19-27 derivative) [I-[cpg]-TFKNWPF]
[A] 1.9

[Q] Fill in reported Half Life of Complex for this entry: K[Gly(cPent)]RRAIEQL (Survivin 130-138 derivative) [K-[cpg]-RRAIEQL]
[A] 50.6
